Consider the following compounds and their measured Met Kinase % Inhibition readings.
system: MET; assay: MET biochemical kinase assay; set-up: species or system human; concentration or dose not given beside the values
// units = %; emit number, no label

# annotated cases, reported Met Kinase % Inhibition shown
compound=Cc1c(Br)ccc2c1C(=Cc1ccc(Cl)c([N+](=O)[O-])c1)C(=O)N2 unit_abbrev=% measured_result=22.7
compound=Cn1cc(Cl)c(C=C2C(=O)Nc3ccc(S(=O)(=O)N4CCOCC4)cc32)n1 unit_abbrev=% measured_result=40.6
compound=Cc1[nH]c(C=C2C(=O)Nc3ccc(Br)c(C)c32)c(Br)c1Br unit_abbrev=% measured_result=71.8

Below: the item to evaluate.
Item COc1cc(OC)c(OC)cc1C=C1C(=O)Nc2ccc(S(=O)(=O)N3CCOCC3)cc21 has what recorded Met Kinase % Inhibition?
-0.6
